Data origin, for the record: ChEMBL document CHEMBL4196092

Species: Homo sapiens
protocol summary: Inhibition of eEF1alpha protein expression in human PANC1 cells by Western blot analysis
Assay type: cell-based
Active and inactive are the calls of the source. The rule behind the calls is not given here.
readout name: inhibition

>>> recorded_value("CC[C@H](C)[C@H]1C(=O)N[C@H](Cc2ccc(O)c(Br)c2)C(=O)N[C@@H](C(C)(C)O)C(=O)O[C@H](c2ccccc2)[C@H](C)/C=C/C=C(\\C)[C@H](OC)C[C@@H]2O[C@@]2(C)C(=O)N1C")
"Active"
>>> recorded_value("CC[C@H](C)[C@H]1C(=O)N[C@H](Cc2ccc(O)c(Br)c2)C(=O)N[C@@H](C(C)(C)O)C(=O)O[C@H](c2ccccc2)[C@H](C)/C=C/C=C(\\C)[C@H](OC)C/C=C(\\C)C(=O)N1C")
"Active"
>>> recorded_value("CC[C@H](C)[C@H]1C(=O)N[C@H](Cc2ccc(O)c(Br)c2)C(=O)N[C@@H](C(C)(C)O)C(=O)O[C@H](c2ccccc2)[C@H](C)/C=C/C=C(\\C)[C@H](OC)C[C@H]2O[C@]2(C)C(=O)N1C")
"Active"
